Answer each item with its documented LD50.
# assay-summary: in vivo
# test-context: ip, Rat

CCC1(O)CC(OC2CC(N(C)C)C(OC3CC(O)C(OC4CCC(O)C(C)O4)C(C)O3)C(C)O2)c2c(cc3c(c2O)C(=O)c2c(O)cccc2C3=O)C1C(=O)OC (centres unmarked) = 25 to 30 mg/kg

Please examine the following record next.
// returns reported LD50 for input CCC1(O)CC(OC2CC(N(C)C)C(OC3CC(O)C(OC4CCC(O)C(C)O4)C(C)O3)C(C)O2)c2c(cc3c(c2O)C(=O)c2c(O)ccc(O)c2C3=O)C1C(=O)OC (centres unmarked)
10 to 15 mg/kg
